Tested on: HepG2 Srxn1-GFP reporter cells (+30 nM CDDO-Me)
Experiment: Srxn1-GFP intensity median modified Z-score relative to plate median; higher = stronger NRF2 / oxidative stress reporter activation, active = hit call of the paper
Details: 10 µM; exposure time: 24h
The whole screen tested about 2,300 compounds, of which about 330 (14%) showed activity. These entries were drawn from the full list.
Each entry gets condition not met if its Srxn1-GFP intensity median modified Z-score stays under -0.02, and condition met if its Srxn1-GFP intensity median modified Z-score is -0.02 or above.

compound	cat
CN1C/C(=C/c2cccs2)C(=O)/C(=C/c2cccs2)C1	condition met
CC(=O)O[C@@H]1C[C@@]2(C)C(CC[C@@H]2C(C)=O)C2CC=C3CC(=O)CC[C@]3(C)C21 (some centres undefined)	condition met
Cc1cc(=O)n(-c2ccccc2)[nH]1	condition not met
CC(C)C(NC(=O)[C@H](CC(=O)O)NC(=O)[C@H](CCCCN)NC(=O)[C@@H](N)CCCN=C(N)N)C(=O)N[C@@H](Cc1ccc(O)cc1)C(=O)O (some centres undefined)	condition not met
O=C(Oc1cccc2cccnc12)c1ccccc1Cl	condition met
CN1CCN(C2N=c3cc(Cl)ccc3=Nc3ccccc32)CC1 (centres undefined)	condition met
CCC(=O)O[C@]1(C(=O)SCF)[C@H](C)CC2C3CC(F)=C4CC(=O)C=C[C@]4(C)C3(F)[C@@H](O)C[C@@]21C (some centres undefined)	condition not met
CC(=O)OCC(=O)[C@@]12OC(C)(C)O[C@@H]1CC1C3CC(F)=C4CC(=O)C=C[C@]4(C)[C@@]3(F)[C@@H](O)C[C@@]12C (some centres undefined)	condition not met
C[C@@H]1CC2C3CC=C4CC(=O)C=C[C@]4(C)[C@@]3(F)[C@@H](O)C[C@]2(C)[C@@]1(O)C(=O)COP(=O)(O)O (some centres undefined)	condition not met
COC(=O)C1=C2C(=O)CC(C)C2C(O[C@@H]2O[C@H](CO)[C@@H](O)[C@H](O)[C@H]2O)OC1 (some centres undefined)	condition not met
CC(=O)OCC(=O)[C@@]1(O)CCC2C3CC=C4CC(=O)C=CC4(C)C3[C@@H](O)C[C@@]21C (some centres undefined)	condition not met
COC(=O)c1c(OC)cc2c(c1C)Oc1c(Cl)c(O)c(Cl)c(C)c1C(=O)O2	condition met
CN(C/C=C/c1ccccc1)Cc1cccc2ccccc12	condition met
CC1C(=NC(=O)C(NOC(C)(C)C(=O)O)c2csc(=N)[nH]2)C(=O)N1S(=O)(=O)O (centres undefined)	condition not met
CC1(C)SC2C(NC(=O)[C@@H](NC(=O)N3CCNC3=O)c3ccccc3)C(=O)N2C1C(=O)O (some centres undefined)	condition not met
O=C1CCC(N2C(=O)c3ccccc3C2=O)C(=O)N1 (centres undefined)	condition not met
COc1ccc2[nH]cc(CCNC(C)=O)c2c1	condition not met
O=C(O)c1ccc2c(c1)OCO2	condition not met
CC(=O)NCCc1ccc(O)c(C2C(=O)C(=O)c3c(c(O)c4c(C(=O)O)c(C(=O)O)c(O)cc4c3O)C2=O)c1 (centres undefined)	condition not met
C=C1C[C@]23C[C@@]1(O)CC[C@H]2[C@@]12C=C[C@H](O)[C@@](C)(C(=O)O1)[C@H]2C3C(=O)O (some centres undefined)	condition met
NC(=O)C(c1ccccc1)(c1ccccc1)C1CCN(CCc2ccc3c(c2)CCO3)C1 (centres undefined)	condition met
COC1(C)CCC2OC2(C)CCC2C1CC2(C)C (centres undefined)	condition not met
CSC1(CNC(=O)Nc2cnn(C)c2Cl)CC1	condition met
O=C1/C(=C/c2cccs2)CSC/C1=C/c1cccs1	condition met
